Record form. Attribute: GI50. Fill in for each entry.
- System: NCI-H23
- protocol_notes: NCI tumour cell line growth inhibition, 48 h
Active and inactive are the calls of the source. No stated cut-off is given here; in the data, active = GI50 up to about 1.1 µM and inactive = higher.

COc1ccc(C(=O)/C=C/c2ccc(OCC(=O)N3CCN(c4ccccc4)CC3)cc2)cc1
38.6 µM (inactive)
CN(C)CCC(O)(c1ccccc1)C(O)(CCN(C)C)c1ccccc1 (stereo unspecified)
> 100 µM (inactive)
O=c1[nH]nc(Cc2ccc([N+](=O)[O-])cc2)[nH]1
> 100 µM (inactive)
O=c1[nH]c(Br)nc2[nH]nnc12
> 100 µM (inactive)
C/C(CC(=O)Nc1ccc(C)cc1C)=N/N=C(N)N
> 100 µM (inactive)

For the 4 molecules below, give their GI50 values.
1. N#CC1CCCCCCCCCCC(=O)N(CCCl)C1=O (stereo unspecified)
2. O=C1C=CC2(C=C1)O[C@H](COCc1ccccc1)[C@@H](COCc1ccccc1)O2
3. C[C@@]12[C@H]3CC[C@@H]1[C@H](O)C(=O)N2CC3
4. COc1ccc(N2C(=O)CC(c3c[nH]c4ncccc34)C2=O)cc1 (stereo unspecified)

Result:
1. > 100 µM (inactive)
2. 1.77 µM (inactive)
3. > 100 µM (inactive)
4. 24.2 µM (inactive)

For the 2 molecules below, give their GI50 values.
1. c1ccc(CN2CCCCC(Sc3ccccc3)CC2)cc1 (stereo unspecified)
2. COC(=O)c1ccccc1C1=C([N+](=O)[O-])C(c2cccc(Br)c2)C(C#N)=C(N)O1 (stereo unspecified)

Result:
["30.1 µM (inactive)", "27.1 µM (inactive)"]
